Biological target: T1, full-length β-Catenin (UniProt P35222 2-781, limits assumed)
T1 construct: mature; also called beta-catenin; beta-Catenin
T1 sequence (looked up): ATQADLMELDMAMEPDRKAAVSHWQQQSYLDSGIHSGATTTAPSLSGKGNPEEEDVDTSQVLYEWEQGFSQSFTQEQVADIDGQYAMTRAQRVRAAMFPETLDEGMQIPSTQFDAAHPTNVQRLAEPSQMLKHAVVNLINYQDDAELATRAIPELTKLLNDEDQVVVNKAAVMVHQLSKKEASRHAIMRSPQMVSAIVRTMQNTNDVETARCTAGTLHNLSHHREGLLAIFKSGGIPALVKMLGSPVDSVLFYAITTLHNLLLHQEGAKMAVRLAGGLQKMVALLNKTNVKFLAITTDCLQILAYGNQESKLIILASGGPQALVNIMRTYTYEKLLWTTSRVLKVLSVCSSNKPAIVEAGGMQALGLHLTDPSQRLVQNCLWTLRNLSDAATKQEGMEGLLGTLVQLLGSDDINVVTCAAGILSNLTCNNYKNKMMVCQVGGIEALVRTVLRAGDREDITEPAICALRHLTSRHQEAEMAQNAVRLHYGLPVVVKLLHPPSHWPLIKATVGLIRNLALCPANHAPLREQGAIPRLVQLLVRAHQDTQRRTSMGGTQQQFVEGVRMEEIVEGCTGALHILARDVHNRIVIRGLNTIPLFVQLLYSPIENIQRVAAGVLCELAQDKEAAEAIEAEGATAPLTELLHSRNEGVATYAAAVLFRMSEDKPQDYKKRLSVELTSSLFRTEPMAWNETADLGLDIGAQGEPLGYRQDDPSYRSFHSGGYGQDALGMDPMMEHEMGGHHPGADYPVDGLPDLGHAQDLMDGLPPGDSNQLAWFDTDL
Experiment: competition fluorescence polarization vs FITC-Axin peptide probe on full-length beta-catenin
pEC50: −log10 of the molar value. Positions of bridges follow the written chain, without caps; N, C: chain ends. No end group written: not given here. Linker 10 = not defined here; Linker 11 = not defined here; Linker 7 = not defined here
Each entry below carries its recorded pEC50.
Readout Type: pEC50

ADPALADCILAAHMCQLW (linker 8-15 via Linker 7 (inferred); reading uncertain, synthetic cysteine-stapled peptide) [Peptide ID 4, ADPALADCILAAHMCQLW, staple type Linker 7]	5.26
ADPAEDECILNNHICRIW (linker 8-15 via Linker 7 (inferred); reading uncertain, synthetic cysteine-stapled peptide) [Peptide ID 7, ADPAEDECILNNHICRIW, staple type Linker 7]	7.85
ADPALWACEHAALICETQ (linker 8-15 via Linker 10 (inferred); reading uncertain, synthetic cysteine-stapled peptide) [Peptide ID 40, ADPALWACEHAALICETQ, staple type Linker 10]	5.02
ADPAPWQCEHAALLCELE (linker 8-15 via Linker 7 (inferred); reading uncertain, synthetic cysteine-stapled peptide) [Peptide ID 11, ADPAPWQCEHAALLCELE, staple type Linker 7]	6.04
ADPALWACEHAALICETQ (linker 8-15 via Linker 7 (inferred); reading uncertain, synthetic cysteine-stapled peptide) [Peptide ID 2, ADPALWACEHAALICETQ, staple type Linker 7]	5.55
ADPAEDECILAAHMCRWW (linker 8-15 via Linker 7 (inferred); reading uncertain, synthetic cysteine-stapled peptide) [Peptide ID 8, ADPAEDECILAAHMCRWW, staple type Linker 7]	6.59
ADPAQDHCILDTHICRIW (linker 8-15 via Linker 7 (inferred); reading uncertain, synthetic cysteine-stapled peptide) [Peptide ID 6, ADPAQDHCILDTHICRIW, staple type Linker 7]	7.33
ADPAQWPCEHAALLCEIE (linker 8-15 via Linker 7 (inferred); reading uncertain, synthetic cysteine-stapled peptide) [Peptide ID 14, ADPAQWPCEHAALLCEIE, staple type Linker 7]	6.39
ADPAHAECVLDYHICQIW (linker 8-15 via Linker 7 (inferred); reading uncertain, synthetic cysteine-stapled peptide) [Peptide ID 5, ADPAHAECVLDYHICQIW, staple type Linker 7]	6.93
ADPATHRCEWAALHCELV (linker 8-15 via Linker 11 (inferred); reading uncertain, synthetic cysteine-stapled peptide) [Peptide ID 32, ADPATHRCEWAALHCELV, staple type Linker 11]	5.29
